B1: EHEE_rd4_0086 (parent)
chain: EIHIRTNGEEQARKVYKMLAKRNYDVKIEQHNGQWVVTAS

Variants of: B1
Assay Overview: folding stability dG (cDNA display proteolysis); higher = more stable
Particulars: PBS, room temperature
Use rule met when the recorded folding stability dG is no lower than 1 kcal/mol; use rule not met when it is lower.

# Variant Id, Group Label
data = [
    ("Y16F", "rule met"),
]

Inquiry: API: above_or_equal(metric=folding stability dG, cutoff=1 kcal/mol) for item Q11K
Reply text: rule met

Inquiry: API: above_or_equal(metric=folding stability dG, cutoff=1 kcal/mol) for item E9H
Reply text: rule met

Inquiry: API: above_or_equal(metric=folding stability dG, cutoff=1 kcal/mol) for item H3V
Reply text: rule met

Inquiry: API: above_or_equal(metric=folding stability dG, cutoff=1 kcal/mol) for item I28Q
Reply text: rule not met

Inquiry: API: above_or_equal(metric=folding stability dG, cutoff=1 kcal/mol) for item N23A
Reply text: rule met

Inquiry: API: above_or_equal(metric=folding stability dG, cutoff=1 kcal/mol) for item Q34K
Reply text: rule met

Inquiry: API: above_or_equal(metric=folding stability dG, cutoff=1 kcal/mol) for item K27G
Reply text: rule not met

Inquiry: API: above_or_equal(metric=folding stability dG, cutoff=1 kcal/mol) for item Y16E
Reply text: rule not met

Inquiry: API: above_or_equal(metric=folding stability dG, cutoff=1 kcal/mol) for item R13T
Reply text: rule met

Inquiry: API: above_or_equal(metric=folding stability dG, cutoff=1 kcal/mol) for item Q11V
Reply text: rule met

Inquiry: API: above_or_equal(metric=folding stability dG, cutoff=1 kcal/mol) for item E9D
Reply text: rule not met

Inquiry: API: above_or_equal(metric=folding stability dG, cutoff=1 kcal/mol) for item Q30L
Reply text: rule met

Inquiry: API: above_or_equal(metric=folding stability dG, cutoff=1 kcal/mol) for item A39G
Reply text: rule met

Inquiry: API: above_or_equal(metric=folding stability dG, cutoff=1 kcal/mol) for item R13N
Reply text: rule met

Inquiry: API: above_or_equal(metric=folding stability dG, cutoff=1 kcal/mol) for item Y24V
Reply text: rule met

Inquiry: API: above_or_equal(metric=folding stability dG, cutoff=1 kcal/mol) for item V36S
Reply text: rule met

Inquiry: API: above_or_equal(metric=folding stability dG, cutoff=1 kcal/mol) for item Q34P
Reply text: rule not met

Inquiry: API: above_or_equal(metric=folding stability dG, cutoff=1 kcal/mol) for item K17D
Reply text: rule met
